- procedure-details: Pharmacokinetics in Sprague Dawley rats
- Format: in vivo
- experimental-conditions: male, rat, in vivo, po, 30 mg/kg
property-name: AUC(0-inf) (ng·h/mL)
One number for each entry, in ng·h/mL.

Req: # input molecule: N#C[C@@]1(c2ccc3c(N)ncnn23)O[C@H](CO)[C@@H](O)[C@H]1O ; wanted: its AUC(0-inf)
Resp: 4220

---

- Tested on: MDR1
- procedure-details: in vitro
- experimental-conditions: dog, MDCK-MDR1, pH 7.4, Papp B to A, MDCK-MDR1, 5 µM, 1 µM Valspodar
property-name: Papp B→A at 2 h, 5 µM (×10⁻⁶ cm/s)
Answers are plain numbers, in ×10⁻⁶ cm/s.

Req: # input compound: N#C[C@@]1(c2ccc3c(N)ncnn23)O[C@H](CO)[C@@H](O)[C@H]1O [GS-441524] ; wanted: its Papp B→A at 2 h, 5 µM
Resp: 0.468
